B1: POU domain, class 2, transcription factor 1, residues 285 to 354; numbered along this chain, P14859 (parent)
chain: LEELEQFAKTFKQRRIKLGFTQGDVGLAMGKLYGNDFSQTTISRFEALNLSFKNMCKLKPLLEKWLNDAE

Variants of: B1
ASSAY_COMMENT: abundance fitness (aPCA) (normalised: wild type 0, dead -1); higher = more abundant; growth selection in yeast, the domain comes from the species named
CONDITION_CONTEXT: Homo sapiens
Parameter threshold = -0.3. Response is T when abundance fitness meets or exceeds it, else F.

Does the reported abundance fitness for NEELEQFAKTFKQRRIKLGFTQGDVGLAMGKLYGNDFSQTTISRFEALNLSFKNMCKLKPLLEKWLNDAE [L1N] fall at or above the -0.3 mark?
T

Does the reported abundance fitness for LEELEQFAKTFKQRRIKLGFTQGDVGLAMGKLYGNDFSQTTISRFEALNLSFKNMLKLKPLLEKWLNDAE [C56L] fall at or above the -0.3 mark?
T

Does the reported abundance fitness for LEELEQFAKTFKQRRIKLGFTQGDVGLAMGKLYGNDFSQTTISRFEALNLSFKNMCKLKPLLEKWLNAAE [D68A] fall at or above the -0.3 mark?
T

Does the reported abundance fitness for LEELEQFAKTFKQRRIKLGFTQGDVGLAMGKLYGNDFSQTTISRFEALNDSFKNMCKLKPLLEKWLNDAE [L50D] fall at or above the -0.3 mark?
T

Does the reported abundance fitness for LEELEQFAKTFKQRRIKLGFTQGDVGLAMGKLMGNDFSQTTISRFEALNLSFKNMCKLKPLLEKWLNDAE [Y33M] fall at or above the -0.3 mark?
T

Does the reported abundance fitness for LEELEQFAKTFKQRRIKLGFTQGDVGLAMGKLYGNMFSQTTISRFEALNLSFKNMCKLKPLLEKWLNDAE [D36M] fall at or above the -0.3 mark?
T

Does the reported abundance fitness for LEELEQFAKTFKQRRIKLGFTQGDVGLAMGKLYGVDFSQTTISRFEALNLSFKNMCKLKPLLEKWLNDAE [N35V] fall at or above the -0.3 mark?
T

Does the reported abundance fitness for LEELEQFAKTFKQRRIKLGFTQGDVGLAMGKLYGNDFSQTTISRFEALNRSFKNMCKLKPLLEKWLNDAE [L50R] fall at or above the -0.3 mark?
F

Does the reported abundance fitness for LEELEQFAKTFKQRRIKLGFTQGDVGFAMGKLYGNDFSQTTISRFEALNLSFKNMCKLKPLLEKWLNDAE [L27F] fall at or above the -0.3 mark?
T

Does the reported abundance fitness for LEELEQFAKTFKQRGIKLGFTQGDVGLAMGKLYGNDFSQTTISRFEALNLSFKNMCKLKPLLEKWLNDAE [R15G] fall at or above the -0.3 mark?
F

Does the reported abundance fitness for LEELEQFAKTFKQRRIKLGFTQGDVGLAMGKLYGNDFSQTTISRFEALNLSFKNMCKTKPLLEKWLNDAE [L58T] fall at or above the -0.3 mark?
T

Does the reported abundance fitness for LEELEQFAKTFKQRRIKLGFTQGDVGTAMGKLYGNDFSQTTISRFEALNLSFKNMCKLKPLLEKWLNDAE [L27T] fall at or above the -0.3 mark?
T

Does the reported abundance fitness for LEELEQMAKTFKQRRIKLGFTQGDVGLAMGKLYGNDFSQTTISRFEALNLSFKNMCKLKPLLEKWLNDAE [F7M] fall at or above the -0.3 mark?
T

Does the reported abundance fitness for LEELEQFAKTFKQRRIKLGFTQGDVGLAMGKLYGNDFSQTTISRFEALNLMFKNMCKLKPLLEKWLNDAE [S51M] fall at or above the -0.3 mark?
F

Does the reported abundance fitness for LEELEQFAKTFKQRRLKLGFTQGDVGLAMGKLYGNDFSQTTISRFEALNLSFKNMCKLKPLLEKWLNDAE [I16L] fall at or above the -0.3 mark?
T

Does the reported abundance fitness for LEELEQFAKTFKQRRIKLGFTQGDVGLAMGKLYGNDFSQTTISRFEALNLSFKNMCKLKPLLEYWLNDAE [K64Y] fall at or above the -0.3 mark?
T

Does the reported abundance fitness for LEELEQFAKTFKQRRIKPGFTQGDVGLAMGKLYGNDFSQTTISRFEALNLSFKNMCKLKPLLEKWLNDAE [L18P] fall at or above the -0.3 mark?
F

Does the reported abundance fitness for LEELEQFAKTFKQRRIKLGFTQGDVGLAMGKLYGNDFSQTTILRFEALNLSFKNMCKLKPLLEKWLNDAE [S43L] fall at or above the -0.3 mark?
T

Does the reported abundance fitness for LEELEQFAKTFKQRRIKLGFTQGDVGLAMGKLYCNDFSQTTISRFEALNLSFKNMCKLKPLLEKWLNDAE [G34C] fall at or above the -0.3 mark?
T

Does the reported abundance fitness for LEELEQFAKTFKQRRIKLGFQQGDVGLAMGKLYGNDFSQTTISRFEALNLSFKNMCKLKPLLEKWLNDAE [T21Q] fall at or above the -0.3 mark?
T

Does the reported abundance fitness for LEELEQFAKTFKQRRIKLGFTQGDVGLAMGKLYGNDFSQTTISRFKALNLSFKNMCKLKPLLEKWLNDAE [E46K] fall at or above the -0.3 mark?
F

Does the reported abundance fitness for LEELEQFAKTFKQRRPKLGFTQGDVGLAMGKLYGNDFSQTTISRFEALNLSFKNMCKLKPLLEKWLNDAE [I16P] fall at or above the -0.3 mark?
F
